# measurement target: GABA A receptor α5β3γ2 (hα5) (Homo sapiens, UniProt P18507+P31644)
# Construct: expressed in transfected cells; host or cells: HEK293, transiently transfected; membranes
# protocol text: [3H]flumazenil competition binding, membranes of HEK293 cells expressing human GABA A α5β3γ2
# reported conditions: [3H]flumazenil 0.5 nM, 1 hour at 4° C., means of two determinations; read-out: Ki[nM] hα5
Some compounds, each annotated with its measured Ki.

Solved entries (count: 4):
{"compound": "Clc1ccc2c(c1)-c1nc(Cn3cccn3)nn1Cc1c(Cl)ncn1-2 [Example 13]", "property name": "Ki", "result": "0.9 nM"}
{"compound": "CN1CCN(Cc2nc3n(n2)Cc2c(Cl)ncn2-c2ccc(Br)cc2-3)C1=O [Example 300]", "property name": "Ki", "result": "0.7 nM"}
{"compound": "O=C1CCCN1Cc1nc2n(n1)Cc1c(Cl)ncn1-c1ccc(Br)cc1-2 [Example 49]", "property name": "Ki", "result": "0.9 nM"}
{"compound": "Cc1ncn2c1Cn1nc(Cn3ccnc3)nc1-c1ccccc1-2 [Example 275]", "property name": "Ki", "result": "0.6 nM"}

For the compound O=C1SCCN1Cc1nc2n(n1)Cc1c(Cl)ncn1-c1ccc(Br)cc1-2 [Example 312] , give its reported Ki.
0.5 nM

For the compound Cc1ncn2c1Cn1nc(Cc3ccncc3)nc1-c1ccccc1-2 [Example 267] , give its reported Ki.
0.25 nM

For the compound Clc1ccc2c(c1)-c1nc(Cn3ccnn3)nn1Cc1c(Cl)ncn1-2 [Example 11] , give its reported Ki.
0.5 nM

For the compound Cc1ncn2c1Cn1nc(Cc3cccnc3)nc1-c1ccccc1-2 [Example 265] , give its reported Ki.
0.62 nM

For the compound Cc1ncn2c1Cn1nc(Cn3ccccc3=O)nc1-c1ccccc1-2 [Example 378] , give its reported Ki.
0.6 nM

----------
Some compounds, each annotated with its measured pKi.
# measurement target: GABA A receptor α1β3γ2 (hα1) (Homo sapiens, UniProt P14867+P18507)
# Construct: expressed in transfected cells; host or cells: HEK293, transiently transfected; membranes
# protocol text: [3H]flumazenil competition binding, membranes of HEK293 cells expressing human GABA A α1β3γ2
# reply with the number alone; pKi is -log10 of concentration in mol/L

Solved entries (count: 3):
{"input smiles": "O=C(Cc1nc2n(n1)Cc1c(Cl)ncn1-c1ccc(Br)cc1-2)NCc1cccnc1", "result": 7.19}
{"input smiles": "O=C1CSC(=O)N1Cc1nc2n(n1)Cc1c(Cl)ncn1-c1ccc(Br)cc1-2", "result": 7.26}
{"input smiles": "Cc1ncn2c1Cn1nc(Cc3ccncc3)nc1-c1ccccc1-2", "result": 7.69}

Return reported pKi for target or system GABA A receptor α1β3γ2 (hα1) (Homo sapiens, UniProt P14867+P18507), item O=C1OCCN1Cc1nc2n(n1)Cc1c(Cl)ncn1-c1ccc(Br)cc1-2 .
7.07

Return reported pKi for target or system GABA A receptor α1β3γ2 (hα1) (Homo sapiens, UniProt P14867+P18507), item Cc1ncn2c1Cn1nc(Cn3ccnc3)nc1-c1ccccc1-2 .
7.47

----------
# measurement target: GABA A receptor α5β3γ2 (hα5) (Homo sapiens, UniProt P18507+P31644)
# Construct: expressed in transfected cells; host or cells: HEK293, transiently transfected; membranes
# protocol text: [3H]flumazenil competition binding, membranes of HEK293 cells expressing human GABA A α5β3γ2
# reported conditions: [3H]flumazenil 0.5 nM, 1 hour at 4° C., means of two determinations; read-out: Ki[nM] hα5
Criterion: Ki strictly under 0.7 nM. Met: 1. Not met: -1.

Illustrative cases are given below, each with its answer.
{"input smiles": "O=C(Cc1nc2n(n1)Cc1c(Cl)ncn1-c1ccc(Br)cc1-2)NCC1CC1", "class": 1}
{"input smiles": "Clc1ccc2c(c1)-c1nc(Cn3nccn3)nn1Cc1c(Cl)ncn1-2", "class": 1}
{"input smiles": "Clc1ccc2c(c1)-c1nc(Cn3cncn3)nn1Cc1c(Cl)ncn1-2", "class": -1}

Hi there! Is Ki for O=C(Cc1nc2n(n1)Cc1c(Cl)ncn1-c1ccc(Br)cc1-2)NC1CCCC1 below 0.7 nM, do you know?
1

Hi there! Is Ki for O=C(Cc1nc2n(n1)Cc1c(Cl)ncn1-c1ccc(Br)cc1-2)NCc1cccnc1 below 0.7 nM, do you know?
-1

Provenance of the data: patent US7507729B2
